The reported measurements were obtained from ChEMBL document CHEMBL4706596.

Record form. Attribute: GI50. Fill in for each entry.
System: CCRF-CEM
METHOD DESCRIPTION: Antiproliferative activity against human CCRF-CEM cells assessed as inhibition of cell proliferation incubated for 72 hrs by MTT assay
Type: functional

CN(C)c1cc[n+](Cc2ccc(C(F)(F)F)cc2)cc1    18 µM
CN(c1ccccc1)c1cc[n+](Cc2ccc(C(F)(F)F)cc2)c2cc(Cl)ccc12    2.1 µM
CN(c1ccccc1)c1cc[n+](Cc2ccccc2)c2cc(Cl)ccc12    2.2 µM
c1ccc(C[n+]2ccc(N3CCCC3)cc2)cc1    5.3 µM
c1ccc(-c2ccc(C[N+]34CCC(CC3)CC4)cc2)cc1    11.8 µM
OC1C[N+]2(Cc3ccc(C(F)(F)F)cc3)CCC1CC2 (stereo unspecified)    > 100 µM
Clc1ccc2c(N3CCCCCC3)cc[n+](Cc3ccc(-c4ccccc4)cc3)c2c1.[Br-]    0.15 µM
Clc1ccc2c(N3CCCC3)cc[n+](Cc3ccccc3)c2c1    3.4 µM

Hi! Can you tell me GI50 for each of these compounds?
1. Clc1ccc2c(N3CCCC3)cc[n+](Cc3ccc(-c4ccccc4)cc3)c2c1
2. FC(F)(F)c1ccc(C[n+]2ccc(N3CCCCCC3)c3ccc(Cl)cc32)cc1
3. FC(F)(F)c1ccc(C[N+]23CCC(CC2)CC3)cc1

result:
0.04 µM
4.6 µM
> 100 µM

====

TARGET DESC: Choline kinase alpha (Homo sapiens, UniProt P35790)
READOUT KIND: IC50 (µM)
Numbers only, in µM.

query: Recorded IC50 for CN(c1ccccc1)c1cc[n+](Cc2ccc(-c3ccccc3)cc2)c2cc(Cl)ccc12 , please?
result: 12.6

====

TARGET DESC: Choline kinase alpha (Homo sapiens, UniProt P35790)
METHOD DESCRIPTION: Inhibition of human CKalpha1 assessed as reduction in 14C incorporation from [methyl-14C]choline to […] at 10 uM using [methyl-14C]choline as substrate preincubated for 5 mins in presence of ATP and MgCl2 followed by substrate addition and measured after 10 mins by liquid scintillation counting method relative to control
SETUP CONDITIONS: time 15.0 min
Sequence (P35790 whole entry, looked up): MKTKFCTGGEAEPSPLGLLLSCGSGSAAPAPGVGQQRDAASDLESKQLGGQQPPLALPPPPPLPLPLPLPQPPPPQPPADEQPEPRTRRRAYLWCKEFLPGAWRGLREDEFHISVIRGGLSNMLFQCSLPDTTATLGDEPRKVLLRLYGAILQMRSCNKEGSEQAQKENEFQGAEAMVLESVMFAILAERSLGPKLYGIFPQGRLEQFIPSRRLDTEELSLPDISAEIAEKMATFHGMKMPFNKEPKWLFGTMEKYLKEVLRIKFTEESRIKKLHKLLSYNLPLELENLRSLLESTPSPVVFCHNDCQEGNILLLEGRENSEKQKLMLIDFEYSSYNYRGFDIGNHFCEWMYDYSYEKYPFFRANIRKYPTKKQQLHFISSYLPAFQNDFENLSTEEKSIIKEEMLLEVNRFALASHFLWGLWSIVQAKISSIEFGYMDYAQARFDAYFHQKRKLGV
Classification scheme (inhibition): L = under 20%, M = from 20% up to 30%, H = 30% and over

Check out these entries, answers already filled in.
CN(c1ccccc1)c1cc[n+](Cc2ccccc2)c2cc(Cl)ccc12    M
CN(C)c1cc[n+](Cc2ccc(C(F)(F)F)cc2)cc1    M
c1ccc(-c2ccc(C[N+]34CCC(CC3)CC4)cc2)cc1    M
CN(C)c1cc[n+](Cc2ccc(-c3ccccc3)cc2)cc1    L
OC1C[N+]2(Cc3ccc(-c4ccccc4)cc3)CCC1CC2 (stereo unspecified)    H
FC(F)(F)c1ccc(C[N+]23CCC(CC2)CC3)cc1    L
FC(F)(F)c1ccc(C[n+]2ccc(N3CCCCCC3)c3ccc(Cl)cc32)cc1    H
CN(c1ccc(Cl)cc1)c1cc[n+](Cc2ccc(C(F)(F)F)cc2)c2cc(Cl)ccc12    L

query: The entry to classify is Clc1ccc2c(N3CCCC3)cc[n+](Cc3ccc(-c4ccccc4)cc3)c2c1 ; which class holds it?
result: H

query: The entry to classify is Clc1ccc2c(N3CCCC3)cc[n+](Cc3ccccc3)c2c1 ; which class holds it?
result: H

query: The entry to classify is Clc1ccc2c(N3CCCCCC3)cc[n+](Cc3ccc(-c4ccccc4)cc3)c2c1.[Br-] ; which class holds it?
result: H

====

TARGET DESC: Choline/ethanolamine kinase (Homo sapiens, UniProt Q9Y259)
Sequence (Q9Y259 whole entry): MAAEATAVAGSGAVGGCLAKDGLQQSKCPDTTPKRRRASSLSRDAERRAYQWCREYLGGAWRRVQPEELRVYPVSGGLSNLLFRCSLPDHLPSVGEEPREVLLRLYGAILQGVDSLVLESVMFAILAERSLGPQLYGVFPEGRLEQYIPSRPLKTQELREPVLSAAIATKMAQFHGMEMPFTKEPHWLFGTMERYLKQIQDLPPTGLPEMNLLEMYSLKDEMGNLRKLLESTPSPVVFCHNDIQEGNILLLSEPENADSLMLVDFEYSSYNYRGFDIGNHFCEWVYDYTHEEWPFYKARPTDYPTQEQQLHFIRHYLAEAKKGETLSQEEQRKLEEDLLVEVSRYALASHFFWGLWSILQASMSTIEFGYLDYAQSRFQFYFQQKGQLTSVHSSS
READOUT KIND: Kd

query: Recorded Kd for CN(c1ccccc1)c1cc[n+](Cc2ccc(-c3ccccc3)cc2)c2cc(Cl)ccc12 , please?
result: 20 µM

====

This document collects pKd values reported for Choline kinase alpha (Homo sapiens).
Numbers only, as −log10 of the molar value.

Reference set, count: 3
CN(C)c1ccncc1    4.46
c1cc(N2CCCC2)ccn1    4.31
c1ccc(-c2ccc(C[n+]3ccc(N4CCCC4)cc3)cc2)cc1    6.17

query: Recorded pKd for Clc1ccc2c(N3CCCCCC3)cc[n+](Cc3ccc(-c4ccccc4)cc3)c2c1.[Br-] , please?
result: 6.43

====

TARGET DESC: Choline kinase alpha (Homo sapiens, UniProt P35790)
METHOD DESCRIPTION: Inhibition of human CKalpha1 assessed as reduction in 14C incorporation from [methyl-14C]choline to […] at 30 uM using [methyl-14C]choline as substrate preincubated for 5 mins in presence of ATP and MgCl2 followed by substrate addition and measured after 10 mins by liquid scintillation counting method relative to control
SETUP CONDITIONS: time 15.0 min
READOUT KIND: inhibition (%)
One number for each entry, in %.

Reference set, count: 5
Clc1ccc2c(N3CCCC3)cc[n+](Cc3ccccc3)c2c1    35
CN(C)c1cc[n+](Cc2ccc(C(F)(F)F)cc2)cc1    33.5
CN(c1ccccc1)c1cc[n+](Cc2ccccc2)c2cc(Cl)ccc12    28.4
Clc1ccc2c(N3CCCC3)cc[n+](Cc3ccc(-c4ccccc4)cc3)c2c1    46.3
CN(C)c1cc[n+](Cc2ccccc2)cc1    37.2

Hi! Can you tell me inhibition for each of these molecules?
1. Clc1ccc2c(N3CCCCCC3)cc[n+](Cc3ccccc3)c2c1
2. c1ccc(-c2ccc(C[n+]3ccc(N4CCCC4)cc3)cc2)cc1
3. CN(C)c1cc[n+](Cc2ccc(-c3ccccc3)cc2)cc1
4. c1ccc(C[n+]2ccc(N3CCCC3)cc2)cc1

result:
27.5
28
26.4
19.6

====

Record form. Attribute: GI50. Fill in for each entry.
System: RS4-11
METHOD DESCRIPTION: Antiproliferative activity against human RS4-11 cells assessed as inhibition of cell proliferation incubated for 72 hrs by MTT assay
Type: functional

Reference set, count: 3
c1ccc(-c2ccc(C[N+]34CCC(CC3)CC4)cc2)cc1    2.6 µM
CN(c1ccccc1)c1cc[n+](Cc2ccc(-c3ccccc3)cc2)c2cc(Cl)ccc12    1.4 µM
Clc1ccc2c(N3CCCCCC3)cc[n+](Cc3ccc(-c4ccccc4)cc3)c2c1.[Br-]    0.06 µM

Hi! Can you tell me GI50 for each of these compounds?
1. CN(c1ccc(Cl)cc1)c1cc[n+](Cc2ccc(-c3ccccc3)cc2)cc1
2. c1ccc(-c2ccc(C[n+]3ccc(N4CCCC4)cc3)cc2)cc1
3. CN(c1ccccc1)c1cc[n+](Cc2ccc(C(F)(F)F)cc2)c2cc(Cl)ccc12
4. CN(C)c1cc[n+](Cc2ccc(-c3ccccc3)cc2)cc1
5. Clc1ccc2c(N3CCCC3)cc[n+](Cc3ccc(-c4ccccc4)cc3)c2c1
6. CN(C)c1cc[n+](Cc2ccccc2)cc1
7. FC(F)(F)c1ccc(C[n+]2ccc(N3CCCC3)c3ccc(Cl)cc32)cc1

result:
0.14 µM
0.22 µM
2.7 µM
0.83 µM
0.05 µM
30.3 µM
1 µM

====

Tested on: HT-29
METHOD DESCRIPTION: Antiproliferative activity against human HT-29 cells assessed as inhibition of cell proliferation incubated for 72 hrs by MTT assay
Format: functional
Exam item: assign yes to entries whose GI50 is below 4 µM and no to entries at or above 4 µM. Note that a value of exactly 4 µM receives no.

Check out these entries, answers already filled in.
FC(F)(F)c1ccc(C[n+]2ccc(N3CCCCCC3)c3ccc(Cl)cc32)cc1    no
c1ccc(-c2ccc(C[n+]3ccc(N4CCCCCC4)c4ccccc43)cc2)cc1    no
CN(C)c1cc[n+](Cc2ccc(C(F)(F)F)cc2)cc1    no
FC(F)(F)c1ccc(C[n+]2ccc(N3CCCC3)cc2)cc1    no

query: Regarding CN(C)c1cc[n+](Cc2ccc(-c3ccccc3)cc2)cc1 , kindly confirm whether its GI50 is beneath 4 µM.
result: yes

query: Regarding Clc1ccc2c(N3CCCC3)cc[n+](Cc3ccc(-c4ccccc4)cc3)c2c1 , kindly confirm whether its GI50 is beneath 4 µM.
result: yes

query: Regarding FC(F)(F)c1ccc(C[N+]23CCC(CC2)CC3)cc1 , kindly confirm whether its GI50 is beneath 4 µM.
result: no

====

Tested on: RS4-11
METHOD DESCRIPTION: Antiproliferative activity against human RS4-11 cells assessed as inhibition of cell proliferation incubated for 72 hrs by MTT assay
Assay type: functional
READOUT KIND: GI50 (µM)
Answers are plain numbers, in µM.

Reference set, count: 2
CN(c1ccccc1)c1cc[n+](Cc2ccccc2)c2cc(Cl)ccc12    3
FC(F)(F)c1ccc(C[n+]2ccc(N3CCCC3)cc2)cc1    7.6

Please look at the following compound next.
query: Recorded GI50 for CN(C)c1cc[n+](Cc2ccc(C(F)(F)F)cc2)cc1 , please?
result: 7.9
